Exercise: state measured glycan array binding signal (z-score) for each of the binders provided.
# system.name: Gal3S(b1-4)Glc6S
# experimental.details: glycan array binding signal (z-score within array); higher = stronger binding
# run.conditions: glycan notation: IUPAC condensed, linker removed
This excerpt belongs to a sample that is enriched for the strongest signals.
Numbers only.

binder	glycan array binding signal (z-score)
EULS2 M1 (Oryza sativa) (protein) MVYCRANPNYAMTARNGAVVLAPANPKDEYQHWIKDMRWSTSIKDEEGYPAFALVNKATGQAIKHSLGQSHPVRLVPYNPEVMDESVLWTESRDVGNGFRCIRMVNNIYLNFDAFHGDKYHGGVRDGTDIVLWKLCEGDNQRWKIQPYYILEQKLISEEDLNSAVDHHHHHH	2.56

Each binder below has a reported value. Please supply its glycan array binding signal (z-score).
1. Onconase (Rana pipiens), P22069 (protein) QDWLTFQKKHITNTRDVDCDNIMSTNLFHCKDKNTFIYSRPEPVKAICKGIIASKNVLTTSEFYLSDCNVTSRPCKYKLKKSTNKFCVTCENQAPVHFVGVGSC
2. MSMEG3662-2a (Mycobacterium smegmatis), A0QYH7_MYCS2 (protein) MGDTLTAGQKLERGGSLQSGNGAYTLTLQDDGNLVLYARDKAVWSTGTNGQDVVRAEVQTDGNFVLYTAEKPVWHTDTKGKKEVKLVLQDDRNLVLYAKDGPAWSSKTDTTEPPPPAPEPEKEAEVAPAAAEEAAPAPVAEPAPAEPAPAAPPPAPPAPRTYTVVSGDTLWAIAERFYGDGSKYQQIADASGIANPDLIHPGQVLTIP

[-0.281, -0.107]

Entry Gal 8 (Mus musculus), Q9JL15 (protein) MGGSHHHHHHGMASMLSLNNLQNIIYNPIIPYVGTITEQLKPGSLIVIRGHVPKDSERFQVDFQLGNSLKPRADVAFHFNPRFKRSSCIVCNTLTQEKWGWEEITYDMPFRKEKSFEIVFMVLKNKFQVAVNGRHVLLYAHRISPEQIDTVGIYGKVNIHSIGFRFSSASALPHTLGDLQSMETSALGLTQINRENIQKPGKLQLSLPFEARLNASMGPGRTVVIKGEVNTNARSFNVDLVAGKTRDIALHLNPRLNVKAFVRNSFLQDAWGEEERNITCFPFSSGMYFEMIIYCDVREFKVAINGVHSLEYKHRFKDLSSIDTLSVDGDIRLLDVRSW has what glycan array binding signal (z-score)? 0.566
